Assign TGI to each entry below.
Test system: A549 NSCLC
Test: NCI tumour cell line growth inhibition, 48 h

Prompt line: Read the entry "CNC(=S)N/N=C/C(C)=N/NC(=S)NC" and write its reported TGI.
Response line: > 100 µM

Prompt line: Read the entry "CC1=NN(c2nc(N)nc(CO)n2)C(C)(C)C1" and write its reported TGI.
Response line: > 100 µM

Prompt line: Read the entry "COc1cc2ncn(-c3cc(OCc4ccccc4C(F)(F)F)c(C(N)=O)s3)c2cc1OC" and write its reported TGI.
Response line: > 25 µM

Prompt line: Read the entry "CNC(=O)[C@H](Cc1ccccc1)NC(=O)N(CCC#N)CCN(C(=O)N[C@@H](Cc1ccccc1)C(=O)OC)c1ccccc1" and write its reported TGI.
Response line: > 100 µM

Prompt line: Read the entry "O=C(O)CNc1ccc2c(c1)Cc1cc(Br)ccc1-2" and write its reported TGI.
Response line: > 81.3 µM

Prompt line: Read the entry Nc1nc(Cl)c2ncn(CCCC(c3ccccc3)P(=O)(O)O)c2n1 (stereo not drawn) and write its reported TGI.
Response line: > 100 µM

Prompt line: Read the entry CCOc1ccc(C2=NN(CC)C(=O)C(C3C(=O)N(c4ccccc4)N=C3C)C2)cc1 (stereo not drawn) and write its reported TGI.
Response line: > 100 µM

Prompt line: Read the entry "Clc1ccc(C=Nc2ccc(-c3nc4ccccc4[nH]3)cc2)cc1" and write its reported TGI.
Response line: > 100 µM

----------
Assign TGI to each entry below.
Tested on: CAKI-1 renal
Experiment: NCI tumour cell line growth inhibition, 48 h

Prompt line: Read the entry "Brc1ccc2[nH]c3c(C4=NCCC4)nccc3c2c1" and write its reported TGI.
Response line: > 53.1 µM

Prompt line: Read the entry "CC1(C)CC(O)CC(C)(C)N1O" and write its reported TGI.
Response line: > 100 µM

Prompt line: Read the entry "CCn1cc(C(=O)O)c(=O)c2cc(F)c(N3CCN(S(=O)(=O)c4ccc(Cl)cc4Cl)CC3)cc21" and write its reported TGI.
Response line: 4.8 µM

Prompt line: Read the entry COc1cccc(C2CC(=O)Nc3c2c(C)nn3-c2nc3ccccc3[nH]2)c1OC (configuration not stated) and write its reported TGI.
Response line: 19.7 µM

Prompt line: Read the entry "Nc1nc(Sc2ccc([N+](=O)[O-])c3nonc23)c2[nH]cnc2n1" and write its reported TGI.
Response line: 5.74 µM

Prompt line: Read the entry "COC(=O)CN1CCN(c2cccc3c2CCCC3)CC1" and write its reported TGI.
Response line: > 100 µM

Prompt line: Read the entry "Cc1ccc(S(=O)(=O)OC[C@@]2(C)CC[C@]3(C)CC[C@]4(C)C(=C3C2)C=C[C@@H]2[C@@]3(C)CCCNC(C)(C)[C@@H]3CC[C@]24C)cc1" and write its reported TGI.
Response line: 3.06 µM

Prompt line: Read the entry "[Br][Pb]([c]1ccccc1)([c]1ccccc1)[c]1ccccc1" and write its reported TGI.
Response line: 0.454 µM

Prompt line: Read the entry CCOC(=O)C(O)(CC1=NC(C(=O)OC)(C(=O)OC)C(c2cccc(C=O)c2)O1)C(=O)OCC (configuration not stated) and write its reported TGI.
Response line: > 100 µM

Prompt line: Read the entry "Cn1cc(-c2cc(-c3cn(C)c4ccccc34)[nH]n2)c2ccccc21" and write its reported TGI.
Response line: > 100 µM

Prompt line: Read the entry COC1OC2COC(=O)c3cc(O)c(O)c(O)c3-c3c(cc(O)c(O)c3O)C(=O)OC2C(O)C1O (configuration not stated) and write its reported TGI.
Response line: > 100 µM

Prompt line: Read the entry "COc1cc(N=Nc2cc(Cc3ccc(N(C)C)cc3)c(N)cc2N(C)C)c2ncccc2c1" and write its reported TGI.
Response line: 2.37 µM

Prompt line: Read the entry "CN(C)S(=O)(=O)c1ccc2[nH]c(O)c(C3=Nc4ccccc4C3=O)c2c1" and write its reported TGI.
Response line: > 100 µM

Prompt line: Read the entry CC1OC(OC2C(O)CC(OC3C(O)CC(OC4CCC5(C)C(CCC6C5CCC5(C)C(C7=CC(=O)OC7)C(O)CC65O)C4)OC3C)OC2C)CC(O)C1O (configuration not stated) and write its reported TGI.
Response line: 0.396 µM

Prompt line: Read the entry "CNC(=O)[C@H](Cc1ccccc1)NC(=O)N(CCC#N)CCN(C(=O)N[C@@H](Cc1ccccc1)C(=O)OC)c1ccccc1" and write its reported TGI.
Response line: > 100 µM

Prompt line: Read the entry Cc1ccc(S(=O)(=O)N/N=C2\C=CC3(CC2)C(=O)N(I)c2ccccc23)cc1 (configuration not stated) and write its reported TGI.
Response line: > 100 µM

Prompt line: Read the entry "Cc1cccc2c(=O)c3c(O)cc(O)cc3n(C)c12" and write its reported TGI.
Response line: > 100 µM

Prompt line: Read the entry O=C(Nc1ccn(C2CC(O)C(COC(c3ccccc3)(c3ccccc3)c3ccccc3)O2)c(=O)n1)c1ccccc1 (configuration not stated) and write its reported TGI.
Response line: 18.4 µM

Prompt line: Read the entry "O/N=C\c1c2c(cc3c1CCC3)CCC2" and write its reported TGI.
Response line: > 100 µM

Prompt line: Read the entry "CNC(=O)CCN1CCN(CC/C=C2\c3ccccc3Sc3ccc(Cl)cc32)CC1" and write its reported TGI.
Response line: 19.7 µM

Prompt line: Read the entry "OCCCN=C1CCCCC1" and write its reported TGI.
Response line: > 100 µM

Prompt line: Read the entry "Fc1ccccc1CN1COc2c(cc(Cl)c3cccnc23)C1" and write its reported TGI.
Response line: 9.93 µM
